Where these numbers come from: patent US20260294769A1

ASSAY DETAILS: Stability Test-1: residual rate of 1% aqueous solutions stored at 50° C. (HPLC)
Format: physicochemical
APPLIED CONDITIONS: water; pH 7, 50° C., after 2 weeks, 1% aqueous solution; read-out: Residual Rate
Item-by-item account of remaining at 336 h

Use the examples below as a reference point.
>>> observed_value("O=C1OC(C(O)CO)C2=C1OCC(O)CO2 (stereo not shown) [Synthesis Example 4]")
"50 to 80%"
>>> observed_value("O=C1OC(C(O)CO)C2=C1OC(CO)CO2 (stereo not shown) [Synthesis Example 5]")
"50 to 80%"
>>> observed_value("O=C1OC(C(O)CO)C2=C1OCCO2 (stereo not shown) [Synthesis Example 1, 2,3-O-(1,2-ethanediyl) ascorbic acid]")
"50 to 80%"

Kindly review the next compound as well.
Enquiry: What remaining at 336 h value was documented for this compound, O=C1OC(C(O)CO)C2=C1OCCCO2 (stereo not shown) [Synthesis Example 2, 2,3-O-(1,3-propanediyl) ascorbic acid] ?
Return: ≥ 80%
